Data origin, for the record: patent EP0781282B1

# Subject of test: AMPA receptors
# Test description: 3H-AMPA binding (Test 1)
# Condition parameters: displacement of 50% of specific 3H-AMPA binding (5 nM); rat cerebral cortical membrane homogenate, 0°C, 30 min
Readout kind: IC50 (nM)
Numbers only; they are read as nM.

Suppose we examine the compound CCOP(=O)(O)Cc1nnc2c(=O)[nH]c3cc(C(F)(F)F)c(-n4ccnc4)cc3n12 ; what IC50 value has been reported?
240
